The measurements presented in this section are drawn from patent US11013780B2.

- test-name: Pharmacokinetics in rats after SC and IV administration
- condition-summary: rat, in vivo; rats, IV 1 mg/kg; read-out: T1/2 alpha phase (converted)
Where a SMILES comes first, the peptide text is derived from it. [ ]: non-standard residue; d: D form. Arg(Me) = CNC(=N)NCCC[C@H](N)C(=O)O; Hyp = O=C(O)[C@@H]1C[C@@H](O)CN1; azaGly = NNC(=O)O
measurement-name: half-life
Please make sure the unit comes right after the number.

[ask] If you can, please state the reported half-life value of CC(=O)O.CNC(=N)NCCC[C@H](NC(=O)[C@H](CC(C)C)NC(=O)NNC(=O)[C@H](Cc1ccccc1)NC(=O)[C@@H](NC(=O)[C@H](CC(N)=O)NC(=O)[C@@H]1C[C@@H](O)CN1C(=O)[C@@H](Cc1ccc(O)cc1)NC(C)=O)[C@@H](C)O)C(=O)N[C@@H](Cc1c[nH]c2ccccc12)C(N)=O [API-MA] (Ac-[dY][Hyp]NTF[azaGly]L[Arg(Me)]W-NH2) .
[reply] 30 min

---

- test-name: Multiple-dose PK, 2-hour SC infusion once daily for 14 days, Japanese prostate cancer patients
- Assay type: in vivo, human
- condition-summary: male, human, in vivo, sc, 0.5 mg/day, Japanese prostate cancer patients, 2-hour SC infusion 0.5 mg/day, Day 14, mean; read-out: AUC (0-tau)
Where a SMILES comes first, the peptide text is derived from it. [ ]: non-standard residue; d: D form. Arg(Me) = CNC(=N)NCCC[C@H](N)C(=O)O; Hyp = O=C(O)[C@@H]1C[C@@H](O)CN1; azaGly = NNC(=O)O
measurement-name: AUC (ng·h/mL)
Form entry: value (ng·h/mL) — number only.

[ask] If you can, please state the reported AUC value of CC(=O)O.CNC(=N)NCCC[C@H](NC(=O)[C@H](CC(C)C)NC(=O)NNC(=O)[C@H](Cc1ccccc1)NC(=O)[C@@H](NC(=O)[C@H](CC(N)=O)NC(=O)[C@@H]1C[C@@H](O)CN1C(=O)[C@@H](Cc1ccc(O)cc1)NC(C)=O)[C@@H](C)O)C(=O)N[C@@H](Cc1c[nH]c2ccccc12)C(N)=O [API-MA] (Ac-[dY][Hyp]NTF[azaGly]L[Arg(Me)]W-NH2) .
[reply] 39.1

---

- test-name: Pharmacokinetics in rats after SC and IV administration
- condition-summary: rat, in vivo, sc, 10 mg/kg
Where a SMILES comes first, the peptide text is derived from it. [ ]: non-standard residue; d: D form. Arg(Me) = CNC(=N)NCCC[C@H](N)C(=O)O; Hyp = O=C(O)[C@@H]1C[C@@H](O)CN1; azaGly = NNC(=O)O
measurement-name: Cmax (ng/mL)
Form entry: value (ng/mL) — number only.

[ask] If you can, please state the reported Cmax value of CNC(=N)NCCC[C@H](NC(=O)[C@H](CC(C)C)NC(=O)NNC(=O)[C@H](Cc1ccccc1)NC(=O)[C@@H](NC(=O)[C@H](CC(N)=O)NC(=O)[C@@H]1C[C@@H](O)CN1C(=O)[C@@H](Cc1ccc(O)cc1)NC(C)=O)[C@@H](C)O)C(=O)N[C@@H](Cc1c[nH]c2ccccc12)C(N)=O [Compound 1] (Ac-[dY][Hyp]NTF[azaGly]L[Arg(Me)]W-NH2) .
[reply] 285

---

- test-name: Single dose PK, phase 1, healthy Japanese men
- Assay type: in vivo, human
- condition-summary: male, human, plasma, sc, 0.04 mg, single SC bolus 0.04 mg, mean
Where a SMILES comes first, the peptide text is derived from it. [ ]: non-standard residue; d: D form. Arg(Me) = CNC(=N)NCCC[C@H](N)C(=O)O; Hyp = O=C(O)[C@@H]1C[C@@H](O)CN1; azaGly = NNC(=O)O
measurement-name: Cmax (ng/mL)
Form entry: value (ng/mL) — number only.

[ask] If you can, please state the reported Cmax value of CC(=O)O.CNC(=N)NCCC[C@H](NC(=O)[C@H](CC(C)C)NC(=O)NNC(=O)[C@H](Cc1ccccc1)NC(=O)[C@@H](NC(=O)[C@H](CC(N)=O)NC(=O)[C@@H]1C[C@@H](O)CN1C(=O)[C@@H](Cc1ccc(O)cc1)NC(C)=O)[C@@H](C)O)C(=O)N[C@@H](Cc1c[nH]c2ccccc12)C(N)=O [API-MA] (Ac-[dY][Hyp]NTF[azaGly]L[Arg(Me)]W-NH2) .
[reply] 0.966

---

- test-name: Single dose PK, phase 1, healthy Japanese men
- Format: in vivo, human
- condition-summary: male, human, urine, sc, 0.004 mg, single SC bolus 0.004 mg, mean, read-out: Fe (urine)
- Description: Thirty-seven healthy Japanese male subjects aged 50 to 74 years were enrolled into nine cohorts. Subjects enrolled in the first […] cohorts received 0.001, 0.004, 0.01, 0.04, 0.1, 0.25 or 0.5 mg of API-MA or placebo by single SC bolus. In the 0.001 mg cohort, 3 subjects received API-MA and two received placebo. In the remaining cohorts, 3 subjects received API-MA and one received placebo. […]
Where a SMILES comes first, the peptide text is derived from it. [ ]: non-standard residue; d: D form. Arg(Me) = CNC(=N)NCCC[C@H](N)C(=O)O; Hyp = O=C(O)[C@@H]1C[C@@H](O)CN1; azaGly = NNC(=O)O
measurement-name: dose excreted (%)
Form entry: value (%) — number only.

[ask] If you can, please state the reported dose excreted value of CC(=O)O.CNC(=N)NCCC[C@H](NC(=O)[C@H](CC(C)C)NC(=O)NNC(=O)[C@H](Cc1ccccc1)NC(=O)[C@@H](NC(=O)[C@H](CC(N)=O)NC(=O)[C@@H]1C[C@@H](O)CN1C(=O)[C@@H](Cc1ccc(O)cc1)NC(C)=O)[C@@H](C)O)C(=O)N[C@@H](Cc1c[nH]c2ccccc12)C(N)=O [API-MA] (Ac-[dY][Hyp]NTF[azaGly]L[Arg(Me)]W-NH2) .
[reply] 6.16

---

- test-name: Single dose PK, phase 1, healthy Japanese men
- Format: in vivo, human
- condition-summary: male, human, urine, sc, 0.1 mg, single SC bolus 0.1 mg, mean, read-out: Fe (urine)
Where a SMILES comes first, the peptide text is derived from it. [ ]: non-standard residue; d: D form. Arg(Me) = CNC(=N)NCCC[C@H](N)C(=O)O; Hyp = O=C(O)[C@@H]1C[C@@H](O)CN1; azaGly = NNC(=O)O
measurement-name: dose excreted (%)
Form entry: value (%) — number only.

[ask] If you can, please state the reported dose excreted value of CC(=O)O.CNC(=N)NCCC[C@H](NC(=O)[C@H](CC(C)C)NC(=O)NNC(=O)[C@H](Cc1ccccc1)NC(=O)[C@@H](NC(=O)[C@H](CC(N)=O)NC(=O)[C@@H]1C[C@@H](O)CN1C(=O)[C@@H](Cc1ccc(O)cc1)NC(C)=O)[C@@H](C)O)C(=O)N[C@@H](Cc1c[nH]c2ccccc12)C(N)=O [API-MA] (Ac-[dY][Hyp]NTF[azaGly]L[Arg(Me)]W-NH2) .
[reply] 5.2

---

- test-name: Pharmacokinetics in monkeys after SC and IV administration
- condition-summary: monkey, in vivo; monkeys, SC 10 mg/kg; read-out: BA (bioavailability)
Where a SMILES comes first, the peptide text is derived from it. [ ]: non-standard residue; d: D form. Arg(Me) = CNC(=N)NCCC[C@H](N)C(=O)O; Hyp = O=C(O)[C@@H]1C[C@@H](O)CN1; azaGly = NNC(=O)O
measurement-name: bioavailability (%)
Form entry: value (%) — number only.

[ask] If you can, please state the reported bioavailability value of CC(=O)O.CNC(=N)NCCC[C@H](NC(=O)[C@H](CC(C)C)NC(=O)NNC(=O)[C@H](Cc1ccccc1)NC(=O)[C@@H](NC(=O)[C@H](CC(N)=O)NC(=O)[C@@H]1C[C@@H](O)CN1C(=O)[C@@H](Cc1ccc(O)cc1)NC(C)=O)[C@@H](C)O)C(=O)N[C@@H](Cc1c[nH]c2ccccc12)C(N)=O [API-MA] (Ac-[dY][Hyp]NTF[azaGly]L[Arg(Me)]W-NH2) .
[reply] 102

---

- test-name: Pharmacokinetics in dogs after SC and IV administration
- condition-summary: dog, in vivo; dogs, SC 0.1 mg/kg; read-out: AUC(0-24)
Where a SMILES comes first, the peptide text is derived from it. [ ]: non-standard residue; d: D form. Arg(Me) = CNC(=N)NCCC[C@H](N)C(=O)O; Hyp = O=C(O)[C@@H]1C[C@@H](O)CN1; azaGly = NNC(=O)O
measurement-name: AUC(0-t) (ng·h/mL)
Form entry: value (ng·h/mL) — number only.

[ask] If you can, please state the reported AUC(0-t) value of CC(=O)O.CNC(=N)NCCC[C@H](NC(=O)[C@H](CC(C)C)NC(=O)NNC(=O)[C@H](Cc1ccccc1)NC(=O)[C@@H](NC(=O)[C@H](CC(N)=O)NC(=O)[C@@H]1C[C@@H](O)CN1C(=O)[C@@H](Cc1ccc(O)cc1)NC(C)=O)[C@@H](C)O)C(=O)N[C@@H](Cc1c[nH]c2ccccc12)C(N)=O [API-MA] (Ac-[dY][Hyp]NTF[azaGly]L[Arg(Me)]W-NH2) .
[reply] 252
